Cited source for all entries: patent US20170253656A1

Please provide measured kon for the entries that follow.
- TARGET OR TEST SYSTEM: T1, hu-CD74 antigen (R&D SYSTEMS catalog #3590-CD-050) (human, UniProt P04233-2 73-232, limits assumed)
- T1 construct: Bought antigen; also called rhCD74; human CD74
- T1 sequence (looked up): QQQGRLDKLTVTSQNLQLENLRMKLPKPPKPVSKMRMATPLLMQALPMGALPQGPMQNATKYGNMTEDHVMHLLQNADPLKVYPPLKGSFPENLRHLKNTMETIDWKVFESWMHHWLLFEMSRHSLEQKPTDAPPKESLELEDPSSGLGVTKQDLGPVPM
- TEST NAME: SPR (Biacore T200), captured on anti-human Fc, rhCD74 analyte
- Method: Kinetic binding experiments were performed at 25° C. using 1×HBS-EP+buffer. Kinetic data was collected by injecting test and control antibodies at concentrations of 10, 5 and 2.5 μg/mL for 12 s at a flow rate of 10 μl/min on flow cells 2, 3 and 4 respectively, followed by a buffer wash for 30 s at the same flow rate. […]
Please report the result as a number followed by the unit.

-- ask // returns reported kon for input 1251-D02 heavy chain paired with VL SEQ ID NO: 272 (antibody, V domains shown) VH: QVQLVESGGGVVQPGRSLRLSCAASGFSFASHGMHWVRQAPDKGLEWVAVIWDDGSDRYYADSVKGRFTISRDNSKNTLYLQMNSLRAEDTAVYYCARGGTRVLGAIHGTDVWGQGTTVTVSS VL: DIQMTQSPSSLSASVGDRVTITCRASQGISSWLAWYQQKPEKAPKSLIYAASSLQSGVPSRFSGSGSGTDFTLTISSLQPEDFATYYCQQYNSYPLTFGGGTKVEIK
-- reply 885000 M⁻¹ s⁻¹

-- ask // returns reported kon for input 1251-D09 heavy chain paired with VL SEQ ID NO: 272 (antibody, V domains shown) VH: QVQLVESGGGVVQPGRSLRLSCAASGFSFSSYGMHWVRQAPDKGLEWVAVIWYDASIRKYAGSVKGRFTISRDNSKNTLYLQMNSLRAEDTAVYYCARGGTVERGAIYGTDVWGQGTTVTVSS VL: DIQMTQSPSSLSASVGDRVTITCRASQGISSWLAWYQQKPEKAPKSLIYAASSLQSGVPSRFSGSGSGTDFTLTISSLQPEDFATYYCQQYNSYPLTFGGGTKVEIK
-- reply 989000 M⁻¹ s⁻¹
